- TESTED_ON: T1, Human B7-H3 extracellular domain (NCBI Reference Sequence: NM_025240.2) (human, UniProt Q5ZPR3 29-466)
- T1 chain: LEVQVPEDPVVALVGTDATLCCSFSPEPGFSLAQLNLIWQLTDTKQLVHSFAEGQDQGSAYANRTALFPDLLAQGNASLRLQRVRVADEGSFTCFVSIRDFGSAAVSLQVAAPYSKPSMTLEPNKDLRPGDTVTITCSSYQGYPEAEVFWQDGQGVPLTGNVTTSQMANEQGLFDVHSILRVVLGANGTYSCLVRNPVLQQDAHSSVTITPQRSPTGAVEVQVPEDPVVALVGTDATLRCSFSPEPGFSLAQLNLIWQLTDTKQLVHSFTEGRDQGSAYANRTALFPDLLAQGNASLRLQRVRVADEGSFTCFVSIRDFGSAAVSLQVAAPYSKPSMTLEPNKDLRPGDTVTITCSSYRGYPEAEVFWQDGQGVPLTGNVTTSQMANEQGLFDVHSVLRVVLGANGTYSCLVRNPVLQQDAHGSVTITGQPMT
- EXPERIMENT_DESCRIPTION: SPR, Biacore 8K, antibody captured through Fc, B7-H3 ECD as analyte
PARAMETER_MEASURED: Kd (nM)
Dear colleague, please return just the value in nM, with no unit written.

INPUT: Given #23-5423 (VH5-4-VL2-3) (antibody, IgG1, V domains shown, Humanized antibody from murine #23) VH: QVQLVQSGAEVKKPGESLKISCKASGYNFNNYWMHWVRQRPGKGLEWIGMIHPNSGTFNYNERFKRKATLTVDKSISTAYLQWSSLKAEDTAMYYCAKSTALATDYWGQGTLVTVSS VL: QIVLTQSPSTLSASVGDRVTITCSASSSVSYMYWYQQKPGKAPKLLIYDTSNLASGVPIRFSGSGSGTSYTLTISSLQPDDFATYYCQQWSSYPLTFGQGTKLEIK , state its recorded Kd.
OUTPUT: 1.05

INPUT: Given #27-21 (VH2-2-VL2-1) (antibody, V domains shown, Humanized antibody from murine #27; Detected with anti-human IgG and captured through Fc; also called #27-VH2-2/VL2-1) VH: QVQLVQSGAEVVKPGASVKVSCKASGYTFTNYWMHWVKQAPGQGLEWIGMIHPNSGAFNYNERFKTRVTITVDKSTSTAYMELSSLRSEDTAVYYCARSTALATGYWGQGTLLTVSS VL: DIQLTQSPSFLSASVGDRVTITCSASSSVSYMYWYQQKPGKSPKLLIYDTSNLASGVPSRFSGSGSGTEYTLTISSLQPEDFATYYCQQWSSYPLTFGQGTKLEIK , state its recorded Kd.
OUTPUT: 1.44
